- Test system: NCI-H322M lung
- Assay name: NCI-60 one-dose screen, 48 h (100 = growth as untreated, 0 = no growth, -100 = all killed)
- Measurement setup: 10 µM unless noted
This is part of a sample that, as a whole, favours compounds with a hit. Of some 83,000 tested, about 20% had one in any assay.
Assign growth to each entry below.
Quick reminder: number only, in %, skip the unit.

I'd like to know its growth. The compound in question is `CC(C)NCCCNC1=C(Cl)C(=O)c2ccccc2C1=O`
105

I'd like to know its growth. The compound in question is `COc1ccc(Nc2ncccc2C(=O)NCc2cn(Cc3cccc(Oc4ccccc4)c3)nn2)c(OC)c1`
56.1

I'd like to know its growth. The compound in question is `O=C(Nc1cccc(-n2cc(-c3ccncc3)c(-c3ccc(Cl)c(O)c3)n2)c1)Nc1cccc(C(F)(F)F)c1`
48.2

I'd like to know its growth. The compound in question is `COc1ccc(-c2cc3c(OC)c(OC)c(OC)cc3oc2=O)cc1`
77

I'd like to know its growth. The compound in question is O=C(CSC1CCc2ccccc21)N/N=C/c1ccccc1O (stereo not given)
22.6

* * *

- Tested on: HCT-15 colon
- Assay name: NCI-60 one-dose screen, 48 h (100 = growth as untreated, 0 = no growth, -100 = all killed)
- Measurement setup: 10 µM unless noted
About 83,000 compounds went through this panel and 20% of them were active in at least one assay; those are over-represented in the sample as a whole. The source made the active and inactive calls. The calls were made as follows: active = growth percent below 10; inactive = the rest.
Measured metric: growth

So what growth did `COc1ccc(/C=C(\C#N)c2cc(OC)c3c(c2)OCO3)cc1` get with HCT-15 colon?
15.7% (inactive)

So what growth did CN(C)c1ncnc2c1ccn2C1OC(CO)C(O)C1O (configuration not stated) get with HCT-15 colon?
14.3% (inactive)

So what growth did `COc1ccc(C(=O)N2NC(=O)/C(=C/c3cn(-c4ccccc4)nc3-c3ccccc3)N=C2c2ccccc2)cc1` get with HCT-15 colon?
98.2% (inactive)

So what growth did `CCCCCCCCN(CCCCCCCC)CCCCCCNc1cc(OC)cc2cccnc12` get with HCT-15 colon?
109% (inactive)

So what growth did `Brc1ccc(-c2[nH]ncc2-c2c[nH]c3ccccc23)cc1` get with HCT-15 colon?
94.9% (inactive)

So what growth did CC12CCC3C4(C)COC(c5ccco5)OC4CCC3(C)C1CC(C1=CCOC1=O)O2 (configuration not stated) get with HCT-15 colon?
97.7% (inactive)

So what growth did `O=[N+]([O-])c1cccc(-c2nc3sccn3c2-c2ccnc(NCCCNS(=O)(=O)c3ccc(C(F)(F)F)cc3)n2)c1` get with HCT-15 colon?
17.6% (inactive)

So what growth did `O=[N+]([O-])c1ccc(C(c2ccccc2)c2ccccc2)cc1` get with HCT-15 colon?
86.4% (inactive)

So what growth did `CC(=O)Nc1scc[n+]1Cc1ccccc1` get with HCT-15 colon?
101% (inactive)

So what growth did COc1ccc(C2C=C(c3ccc(N)cc3)N=C3SC=CN32)cc1OC (configuration not stated) get with HCT-15 colon?
101% (inactive)

So what growth did `Clc1cccc(-c2cc(-c3ccc4c(c3)OCCO4)[nH]n2)c1` get with HCT-15 colon?
18.7% [25 µM] (inactive)

So what growth did `CCOC(=O)/C(C#N)=C1/C(=O)Nc2ccccc21` get with HCT-15 colon?
106% (inactive)

So what growth did `COc1cc2c(cc1OCCCN1CCN(CCCn3c4ccccc4c4ccccc43)CC1)N=C[C@@H]1CCCN1C2=O` get with HCT-15 colon?
-44.6% (active)

So what growth did `c1coc(CNc2ccnc(Nc3ccc(OCCN4CCCCC4)cc3)n2)c1` get with HCT-15 colon?
89.6% (inactive)

So what growth did `Cc1c(C(=N)C(C#N)C#N)c(=N)oc2c1ccc1ccccc12` get with HCT-15 colon?
74.2% (inactive)

So what growth did `COc1cc(/C=N\NC(=O)CN2CCN(c3cc4c(cc3F)c(=O)c(C(=O)N/N=C/c3cc(OC)c(OC)c(OC)c3)cn4C3CC3)CC2)cc(OC)c1OC` get with HCT-15 colon?
101% (inactive)

So what growth did `O=C(CCl)N(C1CCCCC1)C1CCCCC1` get with HCT-15 colon?
98.4% (inactive)

So what growth did `N=c1ccc2nc3ccc(N)cc3sc-2c1` get with HCT-15 colon?
27.3% (inactive)

So what growth did `COc1cc([N+](=O)[O-])c2ncccc2c1O` get with HCT-15 colon?
4.36% (active)

So what growth did `COc1cc(Cn2cc3c(c2)-c2oncc2CC3)cc(OC)c1OC` get with HCT-15 colon?
16.3% (inactive)

So what growth did `COc1ccc(/C=C2\N=C(c3ccccc3)N(C(=O)c3ccccc3O)NC2=O)cc1` get with HCT-15 colon?
104% (inactive)

So what growth did `COc1ccc(-c2cnoc2-c2ccc(OC)cc2O)cc1` get with HCT-15 colon?
26.7% (inactive)
